The values you see were collected from patent US20230416363A1.

Target: T1, hPD-1-his (human, UniProt Q15116 25-167)
T1 construct: domain: IgV domain; monomer in solution; biotin-labelled where captured by streptavidin; also called biotin-hPD-1-his
T1 sequence (Q15116 other isoform, or with tags, fused parts or gaps limits assumed): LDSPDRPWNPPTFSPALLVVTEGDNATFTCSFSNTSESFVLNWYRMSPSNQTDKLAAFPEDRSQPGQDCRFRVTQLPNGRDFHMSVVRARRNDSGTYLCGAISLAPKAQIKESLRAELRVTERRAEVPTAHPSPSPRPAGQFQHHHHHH
Experiment: ELISA, biotin-hPD-1-his on streptavidin
OD450 at 10 nM for assorted binders
Hi! Could you send only the number? It should be in OD450, unit omitted.

Worked examples, 2 binders total:
The binder 33G8 (antibody, V domains shown) VH: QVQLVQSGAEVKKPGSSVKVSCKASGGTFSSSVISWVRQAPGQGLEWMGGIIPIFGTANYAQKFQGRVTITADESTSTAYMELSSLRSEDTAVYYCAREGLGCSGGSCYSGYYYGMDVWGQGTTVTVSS VL: DIVMTQSPLSLPVTPGEPASISCRSSQSLLHSNGYNYLDWYLQKPGQSPQLLIYQASTLGSGVPDRFSGSGSGTDFTLKISRVEAEDVGVYYCMQGTHWPYTFGQGTKLEIK showed OD450 at 10 nM equal to 0.909

The binder 31B1 (antibody, V domains shown, also called 780_38; 33B1 and 31B2 (apparent misprints)) VH: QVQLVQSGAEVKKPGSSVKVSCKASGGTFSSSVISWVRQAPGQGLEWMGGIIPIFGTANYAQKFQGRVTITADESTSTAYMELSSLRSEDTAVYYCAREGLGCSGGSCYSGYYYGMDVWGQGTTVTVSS VL: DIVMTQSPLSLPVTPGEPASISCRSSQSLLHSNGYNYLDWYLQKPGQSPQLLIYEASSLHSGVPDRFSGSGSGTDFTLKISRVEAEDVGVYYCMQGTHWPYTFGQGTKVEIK showed OD450 at 10 nM equal to 0.953

// switching to the query binder
The binder 34C1 (antibody, V domains shown) VH: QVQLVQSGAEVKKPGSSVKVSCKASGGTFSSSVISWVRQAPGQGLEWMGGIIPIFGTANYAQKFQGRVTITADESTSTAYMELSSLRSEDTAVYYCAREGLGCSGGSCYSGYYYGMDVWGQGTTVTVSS VL: DIVMTQSPLSLPVTPGEPASISCRSSESLLYSNGNTYLDWYLQKPGQSPQLLIYEVSNRASGVPDRFSGSGSGTDFTLKISRVEAEDVGVYYCMQGTRWPYTFGQGTKVEIK showed OD450 at 10 nM equal to 0.945
